Data credit: patent US20230192831A1

Target: recombinant human GREM1 (hGREM1-His; C-terminal 10His tagged, R&D, #5190-GR) (human) (UniProt O60565)
Sequence (O60565 other isoform, or with tags, fused parts or gaps limits assumed, form in doubt): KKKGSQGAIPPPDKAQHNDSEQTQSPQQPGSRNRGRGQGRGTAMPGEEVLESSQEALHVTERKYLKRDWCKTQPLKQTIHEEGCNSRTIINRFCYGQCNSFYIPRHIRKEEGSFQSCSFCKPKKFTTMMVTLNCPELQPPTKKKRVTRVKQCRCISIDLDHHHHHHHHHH
Assay: BLI Octet, captured mAb, 100 nM GREM1
The following binders are shown together with reported Binding Signal with 30 sec Association (nm) values.
Reply with just the number (in nm).

Consider the worked cases shown below.
{"binder": "H4H6269P (antibody, human IgG4, V domains shown) VH: QVQLQESGPGLVKPSQTLSLTCTVSGGSISSGGYYWTWIRQHPGKGLEWIGYIYYSGSTYYNPSLKSRVTMSVDTSKNQFSLKLSSVTAADTAVYYCARLLDFDYWGQGTLVTVSS VL: AIQMTQSPSSLSASVGDRVTITCRASQGIRNDLGWYQQKPGKAPKLLIYAASSLQSGVPSRFSGSGSGRDFTLTISSLQPEDFASYYCLQDHNYPLTFGGGTKVEIK", "result-number": 0.15}
{"binder": "H4H6270P (antibody, human IgG4, V domains shown) VH: QVQLVESGGDVVQPGRSLRLSCAASGFTFSSYGMHWVRQAPGKGLEWVAIIWNDGSNKYYTDSVKGRFTISRDNSKNTLYLQMNGLRAEDTAIYYCARDQDQFDYWGQGTLVTVSS VL: EIVMTQSPATLSVSPGERATLSCRASQSISTNLAWYRQKPGQAPRLLIYDASTRATGIPARFSGSGSGTDFTLTISSLQSEDFAVYYCQQYSNWPPYTFGQGTKLEIK", "result-number": 0.2}

Okay, now this binder:
response.value for H4H2889N (antibody, human IgG4, V domains shown) VH: QVQLQESGPGLVKPSETLSLTCTVSGGSISNSYWSWIRQPPGKGLEWIGYIYYSGNTNYNPSLKSRVTISVDTSKNQFSLKLSSVTAADTAVYYCARVNDYSNYDSYYYGMDVWGQGTTVTVSS VL: AIQMTQSPSSLSASVGDRVTITCRASQGIRNDLGWYQQKPGKAPKLLIYAASSLQSGVPSRFSGSGSGTDFTLTISSLQPEDFATYYCLQDYNYPPTFGQGTKVDIK (field: Binding Signal with 30 sec Association (nm)) = 0.2
